Test: AUC (0-6h) in BALB/c mouse at 25 mg/kg, ip
Assay type: ADME, organism-based
Settings: plasma
PARAMETER_MEASURED: AUC(0-t) at 6 h (ng·h/mL)
Give bare numbers, in ng·h/mL.

Give AUC(0-t) at 6 h for all compounds that follow.
1. O=C(O)c1cn(C2CC2)c2cc(N3CCNCC3)c(F)cc2c1=O [CIPROFLOXACIN]
2. C[C@H]1c2cccc(O)c2C(=O)C2=C(O)[C@]3(O)C(=O)C(C(N)=O)=C(O)[C@@H](N(C)C)[C@@H]3[C@@H](O)[C@@H]21.O [DOXYCYCLINE]

Given back:
1. 6600
2. 13700

This collection of values is drawn from ChEMBL document CHEMBL1147119.
